Target: T1, P. falciparum aldolase (P. falciparum, UniProt Q7KQL9 1-369)
T1 construct: also called fructose 1,6-bisphosphate aldolase; parasite aldolase; source: prepared as described previously [42]
T1 sequence (looked up): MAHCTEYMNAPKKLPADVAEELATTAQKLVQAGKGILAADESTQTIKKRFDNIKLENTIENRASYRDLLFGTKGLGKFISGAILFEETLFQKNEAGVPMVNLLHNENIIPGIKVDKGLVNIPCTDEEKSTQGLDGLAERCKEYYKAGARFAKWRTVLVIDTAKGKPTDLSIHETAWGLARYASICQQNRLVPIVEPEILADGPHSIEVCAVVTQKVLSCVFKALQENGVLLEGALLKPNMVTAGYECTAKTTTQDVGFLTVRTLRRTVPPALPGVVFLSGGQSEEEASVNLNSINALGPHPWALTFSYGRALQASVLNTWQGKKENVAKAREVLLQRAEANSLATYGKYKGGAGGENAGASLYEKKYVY
Test: BLI
Conditions: both partners purified
Where no end group is shown, it is not given here. [ ]: non-standard residue; d: D form. The star is where a group is joined. Biotin = O=C1N[C@H]2[C@H](CS[C@H]2CCCCC(=O)*)N1; pT = C[C@@H](OP(=O)(O)O)[C@H](N)C(=O)O; pS = N[C@@H](COP(=O)(O)O)C(=O)O
Quick reference: Kd of the listed items.
Report the value in µM with no unit label.

For orientation, consider the following solved cases.
Binder: RH4 CTD phosphorylated at S1667 or S1674 (also: one phosphate at either Ser1667 (pos 18) or Ser1674 (pos 25), source: phosphorylated synthetic peptide (Biomatik) or peptide phosphorylated in vitro) peptide: Biotin-KNSNEPHHIFNIFQKEFSEADNAHSEEKEEYLPVYFDEVEDEVEDEVEDEDENENEVENENEDFNDI
Reading Unit: µM
Result Value: 2.5
--
Binder: Biotin-YFLRKEK[pT]EKVVQEE[pT]KEENFEVMFNDDALKGKDNKAMDEEEFWALE (source: phosphorylated synthetic peptide (Biomatik) or peptide phosphorylated in vitro) [MTRAP CTD phosphorylated at Thr-459 and Thr-467]
Reading Unit: µM
Result Value: 0.9
--
Binder: EBA175 CTD phosphorylated at T1483 and S1489 (source: phosphorylated synthetic peptide (Biomatik) or peptide phosphorylated in vitro) peptide: Biotin-KYQSSEGVMNENNENNFLFEVTDNLDKLSNMFNQQVQE[pT]NINDF[pS]EYHEDINDINFKK
Reading Unit: µM
Result Value: 38

*Q* Return the recorded Kd value; entry: AMA1 CTD phosphorylated at Ser-610 (not fully specified (residue 44), source: phosphorylated synthetic peptide (Biomatik) or peptide phosphorylated in vitro) peptide: Biotin-YKRKGNAEKYDKMDEPQDYGKSNSRNDEMLDPEASFWGEEKRASHTTPVLMEKPYY
*A* 44

*Q* Return the recorded Kd value; entry: Biotin-DRSNKDECDFDMCEEVNNNDHL[pS]NYADKEEIIEIVFDENEEKYF (cysteine pairing not given here, source: phosphorylated synthetic peptide (Biomatik) or peptide phosphorylated in vitro) [RH2B CTD phosphorylated at S3233]
*A* 11

*Q* Return the recorded Kd value; entry: Biotin-YFLRKEKTEKVVQEE[pT]KEENFEVMFNDDALKGKDNKAMDEEEFWALE (source: phosphorylated synthetic peptide (Biomatik) or peptide phosphorylated in vitro) [MTRAP CTD phosphorylated at Thr-467]
*A* 1.9

*Q* Return the recorded Kd value; entry: EBA181 CTD phosphorylated at S1523 and S1528 (source: phosphorylated synthetic peptide (Biomatik) or peptide phosphorylated in vitro) peptide: Biotin-RKNLDDEKGFYD[pS]NLND[pS]AFEYNNNKYNKLPYMFDQQINVVNSDLYSEGIYDDTTTF
*A* 4.7

*Q* Return the recorded Kd value; entry: EBA140 CTD, phosphorylated (also: phosphorylated, exact sites not determined, also called EBA140 phosphorylated; source: phosphorylated synthetic peptide (Biomatik) or peptide phosphorylated in vitro) peptide: Biotin-RMGKSNEEYDIGESNIEATFEENNYLNKLSRIFNQEVQETNISDYSEYNYNEKNMY
*A* 35

*Q* Return the recorded Kd value; entry: Biotin-YFLRKEK[pT]EKVVQEETKEENFEVMFNDDALKGKDNKAMDEEEFWALE (source: phosphorylated synthetic peptide (Biomatik) or peptide phosphorylated in vitro) [MTRAP CTD phosphorylated at Thr-459]
*A* 3.5
